Cited source: ChEMBL document CHEMBL4513216

test system: Plasmodium berghei; assay: Screen against P. berghei liver stage (PbLuc), transformed with Luciferase, at 10uM; assay type: functional, HepG2; details: tested at 10 uM
Among all 69,000 compounds or so, about 8,600 (12%) showed an effect of 50% or more. This is one part of a sample in which strong results are shown more often than they occur.
INHIBITION strictly under 10% means met; at 10% or over means not met.

Some solved cases for reference:
>>> print(df.to_string())
                                   compound  class_name
0  CCc1[nH]c2c(CNc3cncc(C(=O)N(C)C)n3)cc(F)cc2c1C     not met
1  CCN(CC)c1nc(Nc2cccc(C(=O)O)c2)nc2ccccc12         met
2  CC(=O)N1CCc2nnc(C3CCCN3CC3CCCCC3)n2CC1 (centres undefined)         met

Query string: In the record for COc1ccccc1C(=O)N1C[C@@H]2CCCCN(CC(N)=O)[C@@H]2C1 , is INHIBITION less than 10%?
Result string: met

Query string: API: query returns whether the compound falls strictly under 10% in INHIBITION. Query: COc1ccc(-n2nnc(C(N)=O)n2)cc1
Result string: met

Query string: Hi there! Is INHIBITION for CS(=O)(=O)N1C[C@@H](O)[C@H](N2CCN(c3ccccc3)CC2)C1 below 10%, do you know?
Result string: met
